Every entry's value here was drawn from patent US8404858B2.

- system-name: rat EP3 receptor (Rattus norvegicus)
- Sequence (P34980 whole entry): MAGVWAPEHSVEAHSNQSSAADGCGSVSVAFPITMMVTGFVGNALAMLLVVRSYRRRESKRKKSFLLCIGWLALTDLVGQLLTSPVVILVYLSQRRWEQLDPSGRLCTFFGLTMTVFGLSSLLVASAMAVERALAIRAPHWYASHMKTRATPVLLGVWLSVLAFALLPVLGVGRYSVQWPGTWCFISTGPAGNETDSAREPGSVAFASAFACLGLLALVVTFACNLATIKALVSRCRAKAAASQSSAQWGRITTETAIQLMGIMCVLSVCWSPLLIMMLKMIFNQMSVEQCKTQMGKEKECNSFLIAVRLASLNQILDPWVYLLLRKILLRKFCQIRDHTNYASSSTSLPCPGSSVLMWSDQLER
- measurement-description: Measurement of EP3 agonist activity (intracellular calcium concentration real time imaging, Ca2+ assay)
- details: rEP3-CHO cell, maximum = PGE2 (100 nmol/L)
This listing pairs compounds with measured EC50.
measured-metric: EC50

C[C@@](O)(C/C=C/[C@H]1CCC(=O)[C@@H]1CCSc1nc(C(=O)O)cs1)CC1CCCCC1 [compound 17]; 31 nM
O=C(O)c1csc(SCCN2C(=O)OC[C@@H]2/C=C/[C@@H](O)C2(CCCCF)CCC2)n1 [compound A]; 99 nM
